# System: FPDH
# assay summary: Specificity of FPDH: reducing activity against various carbonyl compounds as substrates
# Format: biochemical, Candida maris IFO 10003
# measurement context: substrate 1 mM; 5-acetylfuro[2,3-c]pyridine = 100%; 0.25 mM NADH, pH 6.5, 30° C.
So basically: is Relative activity (reducing activity, Table 9) under 70%? Then Condition met. Not under? Then Condition not met.

Example results:
CC=O [Acetaldehyde]; Condition met
CCOC(=O)CC(C)=O [Ethyl acetoacetate]; Condition not met
CCCC=O [n-Butyr aldehyde]; Condition not met
O=Cc1ccc(Cl)cc1 [p-Chlorobenzaldehyde]; Condition not met
CCCC(=O)C(=O)O [2-Keto-n-valeric acid]; Condition met

**Q:** Would you kindly verify if Relative activity (reducing activity, Table 9) of CC(=O)C(=O)O [Pyruvic acid] is strictly less than 70%?
**A:** Condition met

**Q:** Would you kindly verify if Relative activity (reducing activity, Table 9) of O=C1CCCC1 [Cyclopentanone] is strictly less than 70%?
**A:** Condition met

**Q:** Would you kindly verify if Relative activity (reducing activity, Table 9) of O=C1CCCCCC1 [Cycloheptanone] is strictly less than 70%?
**A:** Condition met

**Q:** Would you kindly verify if Relative activity (reducing activity, Table 9) of O=Cc1ccccc1 [Benzaldehyde] is strictly less than 70%?
**A:** Condition not met

**Q:** Would you kindly verify if Relative activity (reducing activity, Table 9) of COC(=O)CC(C)=O [Methyl acetoacetate] is strictly less than 70%?
**A:** Condition not met

**Q:** Would you kindly verify if Relative activity (reducing activity, Table 9) of CCOC(=O)C(Cl)C(C)=O (stereo not drawn) [Ethyl 2-chloroacetoacetate] is strictly less than 70%?
**A:** Condition not met

**Q:** Would you kindly verify if Relative activity (reducing activity, Table 9) of O=C1CCc2ccccc2C1 [2-Tetralone] is strictly less than 70%?
**A:** Condition met

**Q:** Would you kindly verify if Relative activity (reducing activity, Table 9) of CC12CCC(C(=O)C1=O)C2(C)C (stereo not drawn) [Camphorquinone] is strictly less than 70%?
**A:** Condition met

* * *

# System: FPDH
# assay summary: Specificity of FPDH: reducing activity against various carbonyl compounds as substrates
# Format: biochemical, Candida maris IFO 10003
# measurement context: substrate 1 mM; 5-acetylfuro[2,3-c]pyridine = 100%; 0.25 mM NADH, pH 6.5, 30° C.
Threshold rule: Relative activity (reducing activity, Table 8) greater than or equal to 40% is met; below that, not met.

O=C(CCl)c1cccc(Cl)c1; not met

**Q:** Is Relative activity (reducing activity, Table 8) for "CCCC(C)=O" at or above 40%?
**A:** met

**Q:** Is Relative activity (reducing activity, Table 8) for "CC(=O)c1ccccc1" at or above 40%?
**A:** met

**Q:** Is Relative activity (reducing activity, Table 8) for "CCC(=O)CC" at or above 40%?
**A:** not met

**Q:** Is Relative activity (reducing activity, Table 8) for "CC(=O)c1cccc(Cl)c1" at or above 40%?
**A:** met

**Q:** Is Relative activity (reducing activity, Table 8) for "CC(=O)C(C)C" at or above 40%?
**A:** met

* * *

# Tested on: FPDH
# assay summary: Specificity of FPDH: reducing activity against various carbonyl compounds as substrates
# Assay type: biochemical, Candida maris IFO 10003
# measurement context: substrate 1 mM; 5-acetylfuro[2,3-c]pyridine = 100%; 0.25 mM NADH, pH 6.5, 30° C.
Recorded measurements of Relative activity (reducing activity, Table 8), one per entry
Express it in %; write the number only.

// solved cases for Relative activity (reducing activity, Table 8) follow
CC(=O)c1cc2ccoc2cn1 [5-Acetylfuro[2,3-c]pyridine]; 100
CC(=O)c1cccs1; 77
CC(=O)c1cc2ccoc2c(Cl)n1 [1-Chloro-5-acetylfuro[2,3-c]pyridine]; 66
CC(=O)c1ccc([N+](=O)[O-])cc1; 116
CC(=O)C1CCCCC1=O (centres unmarked); 68
CC(=O)c1ccccn1; 111

**Q:** Quick one: Relative activity (reducing activity, Table 8) of "CC(=O)c1cnccn1" ?
**A:** 133

**Q:** Quick one: Relative activity (reducing activity, Table 8) of "CC(C)=O" ?
**A:** 40

**Q:** Quick one: Relative activity (reducing activity, Table 8) of "CCCCCCC(C)=O" ?
**A:** 38

**Q:** Quick one: Relative activity (reducing activity, Table 8) of COC(=O)C(C)=O [Methyl pyruvate] ?
**A:** 132

**Q:** Quick one: Relative activity (reducing activity, Table 8) of CC(=O)C(C)O (centres unmarked) ?
**A:** 43
